tested on: CAKI-1; experiment: NCI tumour cell line growth inhibition, 48 h
Activity calls are given as the source filed them. Rule as the data show it: active = GI50 up to about 1.1 µM and inactive = higher.
Classes used: 1 (yes) = active, 0 (no) = inactive

COMPOUND	DISCRETE_LABEL
CCCC(C)NC(=O)c1ccc(N(C)Cc2cnc3nc(N)nc(N)c3n2)cc1 (configuration not stated)	0 (no)
Cc1cc(Cl)ccc1OCC(=O)Oc1c(Cl)c(Cl)c(Cl)c(Cl)c1Cl	0 (no)
CCCCCCCCC[C@@H]1C[C@@H]2CCC3C(C(=O)OC)=C(C)N=C(N1)N32 (some centres not stated)	0 (no)
CC(N/N=C(\S)N1CCCCCC1)c1cccnn1 (configuration not stated)	1 (yes)
COP(=O)(OC)OCN(C)CC/C=C(\C)CC/C=C(\C)CCC=C(C)C	0 (no)
CC1OC(OC2C(O[C@H]3CC[C@@]4(C)C(=CC[C@H]5[C@@H]6C[C@@H]7O[C@]8(CC[C@@H](C)CO8)[C@@H](C)[C@@H]7[C@@]6(C)CC[C@@H]54)C3)OC(CO)C(O)C2OC2OC(CO)C(O)C(O)C2O)C(O)C(O)C1O (some centres not stated)	0 (no)
N#CCc1nc(O)c2ccccc2n1	0 (no)
O=c1[nH]c2ccc(Cl)cc2o1	0 (no)
CN/N=C(\C)C(CN1CCCCC1)C(C1=C(O)c2ccccc2OC1)c1ccccc1 (configuration not stated)	0 (no)
O=c1c2ccccc2c2ccccc2c(=O)n1-c1cc2c3ccccc3ccc2c2ccccc12	0 (no)
CCOC(=O)C1(C(=O)OCC)CCC(C(OC)OC)C(CC(=O)OC)C1 (configuration not stated)	0 (no)
c1ccc(-c2nnc(SCc3c[nH]c4ccccc34)n2-c2ccccc2)cc1	0 (no)
Nc1cccc2c1C(=O)c1cccc(N)c1C2=O	0 (no)
Cc1ccccc1NC(=O)/C(C#N)=N\Nc1[nH]cnc1C(N)=O	0 (no)
Cc1cc(C)n(-c2nc(C)c(CCO)c(=O)[nH]2)n1	0 (no)
CSc1nc(C#N)c(N)n1C	0 (no)
N#Cc1c(=O)c2cc([N+](=O)[O-])ccc2n2c1[nH]c1ccccc12	0 (no)

----------
tested on: SK-MEL-28; test: NCI tumour cell line growth inhibition, 48 h
Calls of active or inactive are those of the source. No stated cut-off is given here; in the data, active = GI50 up to about 1.1 µM and inactive = higher.
OBSERVATION_TYPE: GI50

MOLECULE	OBSERVATION_TYPE	RESULT
NCCO/C=C/C(N)C(=O)O (configuration not stated)	GI50	> 100 µM (inactive)
c1ccc2c(Cc3c[nH]c4ccccc34)c[nH]c2c1	GI50	36 µM (inactive)
COc1ccc(/N=C2/C(=N/c3ccc(OC)cc3)N(c3ccccc3)C(=S)N2N=C=C2Sc3ccccc3N2C)cc1	GI50	> 100 µM (inactive)
Cc1ccc([Se][Se]c2ccc(C)cc2)cc1	GI50	19.1 µM (inactive)
CC1=C(O)C(=O)C2C(=O)C1C(C)C2c1ccc(C)cc1 (configuration not stated)	GI50	> 100 µM (inactive)
CC1(C)[C@@H]2CC[C@@]1(C)CN(CCC[N+](C)(C)C)C2	GI50	> 100 µM (inactive)
Nc1nc(-c2cccs2)cs1	GI50	> 100 µM (inactive)
CC(C)c1cccc(C(C)C)c1NC(=S)NN=C1C=C(C(C)(C)C)C(=O)C(C(C)(C)C)=C1	GI50	34.4 µM (inactive)
O=c1c2cc(Br)ccc2n(C2OC(CO)C(O)C(O)C2O)c(=S)n1-c1ccccc1 (configuration not stated)	GI50	> 100 µM (inactive)
CC(=NNC(=S)Nc1ccccc1)c1cccc(C(C)=NNC(=S)Nc2ccccc2)n1	GI50	> 100 µM (inactive)
CC(C)C1N2CCCCC2[C@@H]2c3[nH]c4ccccc4c3CCN12 (some centres not stated)	GI50	> 100 µM (inactive)
CC(C)=CC1C(COC(=O)c2cc3c(cc2Cl)OCO3)C1(C)C (configuration not stated)	GI50	38.8 µM (inactive)
Cc1c(C(=O)Nc2ccc(Cl)c(C(F)(F)F)c2)oc2cc(O)ccc2/c1=N\NC(N)=S	GI50	> 100 µM (inactive)
N#C/C(=C\Nc1ccccn1)C(=O)C1CC1	GI50	> 100 µM (inactive)
Cc1cc(C)n(-c2nc(C)c(CCO)c(=O)[nH]2)n1	GI50	> 100 µM (inactive)
O=C(O)C1C(=O)Oc2c(cccc2[N+](=O)[O-])C1O (configuration not stated)	GI50	> 100 µM (inactive)
COc1cc2c(cc1OC)-c1cc3cc(OC)c(OC)cc3n1CC2	GI50	34 µM (inactive)
COC(=N)C12C(N)=NC(OC)(OC)C1(C#N)C21C(=O)N(c2ccccc2)N=C1C (configuration not stated)	GI50	> 100 µM (inactive)
CC1(C)C(CCO)CC1n1cc(I)c(=O)[nH]c1=O (configuration not stated)	GI50	> 100 µM (inactive)
O=C1/C(=C/c2ccc(O)c(O)c2)CC/C1=C\c1ccc(O)c(O)c1	GI50	14.2 µM (inactive)
CCOC(=O)C(=CNC(=S)N/N=C1\C(=O)Nc2ccccc21)C(=O)OCC	GI50	> 100 µM (inactive)
Cc1cc(C)c(C2CC(O)C(CO)O2)cc1C (configuration not stated)	GI50	> 100 µM (inactive)

----------
As a worked illustration, we turn to GI50 data collected for HCT-15.

COMPOUND	TESTED_TARGET	READOUT_RELATION	GI50 (µM)
COc1cc(-c2oc(/C=N/c3ccccc3)c([N+](=O)[O-])c2-c2ccc(O)c(OC)c2)ccc1O	HCT-15	=	14.4
COC(=N)C12C(N)=NC(OC)(OC)C1(C#N)C21C(=O)N(c2ccccc2)N=C1C (centres undefined)	HCT-15	>	100
COCCCNC(=O)C1C(=O)C(=O)N(CCCOC)C1=O (centres undefined)	HCT-15	>	100
COc1ncc(C#CC(=O)c2ccccc2)c(OC)n1	HCT-15	=	1.37

----------
In this section, each of the compounds is paired with its reported GI50.
system: HOP-18; test: NCI tumour cell line growth inhibition, 48 h
Calls of active or inactive are those of the source. Cut-off read from the data, not from the text of the source: active = GI50 up to about 1.1 µM and inactive = higher.
OBSERVATION_TYPE: GI50

COMPOUND	TESTED_TARGET	RESULT
CCCc1c2c([nH]c(=O)c1C)C(=O)c1[nH]c(=O)c(C)c(CCC)c1C2=O	HOP-18	> 100 µM (inactive)
O=C(NN1C(=O)C(Cl)C1c1cccc(O)c1)c1ccccc1O (stereo unspecified)	HOP-18	24.8 µM (inactive)
CN1C(=O)n2c(nc3ccccc32)C(N=[N+]=[N-])(N=[N+]=[N-])C1=O (stereo unspecified)	HOP-18	> 100 µM (inactive)
Cc1ccc([S+](c2ccccc2)c2cc(C)ccc2C)cc1 (stereo unspecified)	HOP-18	1.38 µM (inactive)
COCCCNC(=O)C1C(=O)C(=O)N(CCCOC)C1=O (stereo unspecified)	HOP-18	> 100 µM (inactive)
Clc1ccc(C2=Nc3ccccc3SC(c3cccs3)C2)cc1 (stereo unspecified)	HOP-18	18.6 µM (inactive)
CCOC(=O)C1=C(C)NC(=O)NC1c1ccc(OC)cc1OC (stereo unspecified)	HOP-18	> 100 µM (inactive)
COc1ccc2c(c1)CC1NC2Cc2ccccc21 (stereo unspecified)	HOP-18	> 100 µM (inactive)
CN(C)c1ccc(C(C=C2c3ccccc3Sc3ccccc32)=C(C#N)C#N)cc1	HOP-18	> 100 µM (inactive)
COc1cc(/C=C\c2ccc(Br)cc2)cc(OC)c1OC	HOP-18	0.000721 µM (active)
Cc1ccc(S(=O)(=O)N/N=C(\c2nc3ccc(Cl)cc3nc2O)C(O)c2cccc([N+](=O)[O-])c2)cc1 (stereo unspecified)	HOP-18	> 100 µM (inactive)

----------
test system: XF498; assay: NCI tumour cell line growth inhibition, 48 h
The source made the active and inactive calls. Rule as the data show it: active = GI50 up to about 1.1 µM and inactive = higher.
Outcome codes: true (1) (active), false (0) (inactive)

MOLECULE	DISCRETE_LABEL
O=c1c2cc(Br)ccc2n(C2OC(CO)C(O)C(O)C2O)c(=S)n1-c1ccccc1 (configuration not stated)	false (0)
CN/N=C(\C)C(CN1CCCCC1)C(C1=C(O)c2ccccc2OC1)c1ccccc1 (configuration not stated)	false (0)
CC1(C)c2ccccc2N2O[C@@H]3C(=O)N(c4ccccc4)C(=O)[C@@H]3C21c1ccccc1 (some centres not stated)	false (0)
CN(C)c1ccc(C(C=C2c3ccccc3Sc3ccccc32)=C(C#N)C#N)cc1	false (0)
O=C1C=CC(=O)c2nc3c(cc21)CCC3	false (0)
CCOc1ccccc1NC(=O)/C=C1\NC(=O)CS1	false (0)
CC(C)C1N2CCCCC2[C@@H]2c3[nH]c4ccccc4c3CCN12 (some centres not stated)	false (0)
CCC1=CC2CN3Cn4c(c(COCc5c6n(c7ccccc57)CN5CC7C=C(CC)C5C6(C(=O)OC)C7)c5ccccc54)C(C(=O)OC)(C2)C13	false (0)
COc1ccc2c(c1)CC1NC2Cc2ccccc21 (configuration not stated)	false (0)
CC(=O)NC(CCCCN(Cc1ccccc1)C(=O)N(C)N=O)C(=O)NCc1ccccc1 (configuration not stated)	false (0)
CCOC(=O)/C(O)=C1\C(=O)N(C)C(=O)C1c1cccc(OC)c1 (configuration not stated)	false (0)
COC(=O)c1cc(O)ccc1NC(=O)c1ccc(O)cc1	false (0)
C[C@]12Cc3cn[nH]c3C(=O)C1CC[C@@H]1C2CC[C@@]2(C)C1CC[C@]2(C)O (some centres not stated)	false (0)
CC1=C(O)C(=O)C2C(=O)C1C(C)C2c1ccc(C)cc1 (configuration not stated)	false (0)
Cc1nc(-c2nc(C)c(C(=O)/C=C/c3ccc(N(C)C)cc3)s2)sc1C(=O)/C=C/c1ccc(N(C)C)cc1	false (0)
CNC(=O)CN(CC(=O)NC)C(=O)NC	false (0)
CC1CCP(=O)(c2ccccc2)c2ccccc21 (configuration not stated)	true (1)
CCc1cccc(C(C)C)c1NC(=O)C(=O)C(CC(=O)Nc1ccc(Cl)c(Cl)c1)C(=O)OC (configuration not stated)	false (0)
CCC1c2cc3n(c(=O)c2COC1O)Cc1c-3nc2ccccc2c1Cl (configuration not stated)	false (0)
N/N=C1\C(=O)N(CCc2ccccc2)C(=O)C1C(=O)NCCc1ccccc1 (configuration not stated)	false (0)
Nc1cccc2c1C(=O)c1cccc(N)c1C2=O	false (0)
CC(O)C(NC(=O)C(CS)NC(=O)C(CO)NC(=O)C(CCCCN)NC(=O)C(Cc1c[nH]c2ccccc12)NC(=O)C(Cc1ccc(O)cc1)NC(=O)C(CS)NC(=O)C(N)Cc1ccccc1)C(N)=O (configuration not stated)	false (0)
C=C=C(C(=O)OC)[S+]([O-])c1ccccc1[N+](=O)[O-] (configuration not stated)	false (0)
CC(=O)CCCCO	false (0)
CCOC(=O)C1=C(Nc2cccc3ccccc23)OCC1=O	false (0)
CCC12C=CCN3CC[C@]4(C(=C(C(=O)OC)[C@@H]1Nc1ccn(C5OC(COC(C)=O)C(OC(C)=O)C5OC(C)=O)c(=O)n1)Nc1ccccc14)C32 (some centres not stated)	false (0)
CC(C)C(=O)NS(=O)(=O)c1ccccc1	false (0)

Each recorded value in this set is attributed to ChEMBL document CHEMBL1201862.
